From: patent US20250154202A1

Details: mouse, in vivo, iv, 10 mg/kg
MEASURED_METRIC: MRT last

The value of MRT last measured for the substance Ac-PSRLEEELRRRLTE-NH2 [SD14316] turned out to be 4 min

----------
// values below are reported Tube 1 (compound concentration)
Assay: Plasma stability, mouse plasma
Settings: mouse plasma, 37° C., timepoint 6 h
Bridge positions count the residues as written; N and C are the ends. Peptide text beside a SMILES is read from it.
// print number alone

MOLECULE	NUMERIC_VALUE
CC(=O)N[C@@H](CO)C(=O)N[C@@H](CCCNC(=N)N)C(=O)N[C@@H](CC(C)C)C(=O)N[C@@H](CCC(=O)O)C(=O)N[C@H]1CCC(=O)NCCCC[C@@H](C(=O)N[C@@H](CCCNC(=N)N)C(=O)N[C@@H](CCCNC(=N)N)C(=O)N[C@@H](CC(C)C)C(=O)N[C@H](C(=O)N[C@@H](CCC(=O)O)C(N)=O)[C@@H](C)O)NC(=O)[C@H](CC(C)C)NC(=O)[C@H](CCC(=O)O)NC1=O [SD15192] (Ac-SRLEEELKRRLTE-NH2; lactam 5-8)	1.851

The value of Tube 1 (compound concentration) measured for the molecule CC(=O)N[C@@H](CO)C(=O)N[C@@H](CCCNC(=N)N)C(=O)N[C@@H](CC(C)C)C(=O)N[C@@H](CCC(=O)O)C(=O)N[C@H]1CC(=O)NCCCC[C@@H](C(=O)N[C@@H](CCCNC(=N)N)C(=O)N[C@@H](CC(C)C)C(=O)N[C@H](C(=O)N[C@@H](CCC(=O)O)C(N)=O)[C@@H](C)O)NC(=O)[C@H](CCCNC(=N)N)NC(=O)[C@H](CC(C)C)NC(=O)[C@H](CCC(=O)O)NC1=O [SD15196] (Ac-SRLEDELRKRLTE-NH2; lactam 5-9) turned out to be 1.96

----------
Details: mouse, in vivo, iv, 3 mg/kg, Cmax
MEASURED_METRIC: Cmax (ng/mL)
Quick note: give the figure in ng/mL, leave out the unit.

The value of Cmax measured for the substance Ac-PSRLEEELRRRLTE-NH2 [SD14316] turned out to be 306

----------
Target: NbALFA
Test: SPR measurements of NbALFA binding (Biacore T200, multi cycle kinetics, 1:1 binding model)
Conditions: 25° C., HBS-EP+ buffer, biotinylated NbALFA captured
MEASURED_METRIC: Kd (nM)
Quick note: give the figure in nM, leave out the unit.

The value of Kd measured for the substance Ac-SRLEEELRRRLTE-NH2 [SD15197, reference compound] turned out to be 0.0117

----------
Test: Plasma stability, mouse plasma
Details: mouse plasma, 37° C., timepoint 3 h
Bridge positions count the residues as written; N and C are the ends. Square brackets hold non-standard residues; d marks the D form. Peptide text beside a SMILES is read from it.
MEASURED_METRIC: Mean (compound concentration)
// print number alone

MOLECULE	Mean (compound concentration)
CC(=O)N1CCC[C@H]1C(=O)N[C@@H](CO)C(=O)N[C@@H](CCCNC(=N)N)C(=O)N[C@@H](CC(C)C)C(=O)N[C@@H](CCC(=O)O)C(=O)N[C@H]1CCC(=O)NCCCC[C@H](C(=O)N[C@@H](CCCNC(=N)N)C(=O)N[C@@H](CC(C)C)C(=O)N[C@H](C(=O)N[C@@H](CCC(=O)O)C(N)=O)[C@@H](C)O)NC(=O)[C@H](CCCNC(=N)N)NC(=O)[C@H](CC(C)C)NC(=O)[C@H](CCC(=O)O)NC1=O [SD15808] (Ac-PSRLEEELR[dK]RLTE-NH2; lactam 6-10)	2.357
CC(=O)N1CCC[C@H]1C(=O)N[C@@H](CO)C(=O)N[C@@H](CCCNC(=N)N)C(=O)N[C@@H](CC(C)C)C(=O)N[C@@H](CCC(=O)O)C(=O)N[C@H]1CCCCNC(=O)CC[C@@H](C(=O)N[C@@H](CCCNC(=N)N)C(=O)N[C@@H](CC(C)C)C(=O)N[C@H](C(=O)N[C@@H](CCC(=O)O)C(N)=O)[C@@H](C)O)NC(=O)[C@H](CCCNC(=N)N)NC(=O)[C@H](CC(C)C)NC(=O)[C@H](CCC(=O)O)NC1=O [SD15805] (Ac-PSRLEKELRERLTE-NH2; lactam 6-10)	2.112

// switching to the query molecule
The value of Mean (compound concentration) measured for the molecule CC(=O)N1CCC[C@H]1C(=O)N[C@@H](CO)C(=O)N[C@@H](CCCNC(=N)N)C(=O)N[C@@H](CC(C)C)C(=O)N[C@@H](CCC(=O)O)C(=O)N[C@H]1CSSC[C@H](C(=O)N[C@@H](CCCNC(=N)N)C(=O)N[C@@H](CCCNC(=N)N)C(=O)N[C@@H](CC(C)C)C(=O)N[C@H](C(=O)N[C@@H](CCC(=O)O)C(N)=O)[C@@H](C)O)NC(=O)[C@H](CC(C)C)NC(=O)[C@H](CCC(=O)O)NC1=O [SD15807] (Ac-PSRLECEL[dC]RRLTE-NH2; disulfide 6-9) turned out to be 1.322

----------
Assay: Pharmacokinetic study in mouse, intravenous bolus, plasma LC-MS/MS, non-compartmental analysis
Details: in vivo, iv, 3 mg/kg, C0, single i.v.
Bridge positions count the residues as written; N and C are the ends. Peptide text beside a SMILES is read from it.
MEASURED_METRIC: C0 (ng/mL)
Quick note: give the figure in ng/mL, leave out the unit.

The value of C0 measured for the compound CC(=O)N1CCC[C@H]1C(=O)N[C@@H](CO)C(=O)N[C@@H](CCCNC(=N)N)C(=O)N[C@@H](CC(C)C)C(=O)N[C@@H](CCC(=O)O)C(=O)N[C@H]1CCC(=O)NCCCC[C@@H](C(=O)N[C@@H](CCCNC(=N)N)C(=O)N[C@@H](CC(C)C)C(=O)N[C@H](C(=O)N[C@@H](CCC(=O)O)C(N)=O)[C@@H](C)O)NC(=O)[C@H](CCCNC(=N)N)NC(=O)[C@H](CC(C)C)NC(=O)[C@H](CCC(=O)O)NC1=O [SD15341] (Ac-PSRLEEELRKRLTE-NH2; lactam 6-10) turned out to be 15400

----------
Test: Plasma stability, human plasma
Conditions: human, human Li-heparin plasma, Conc. (% of T0), human plasma, 37° C., timepoint 6 h
Bridge positions count the residues as written; N and C are the ends. Peptide text beside a SMILES is read from it.
// values below are reported remaining at 6 h, 10 µM
Quick note: give the figure in %, leave out the unit.

The value of remaining at 6 h, 10 µM measured for the compound CC(=O)N[C@@H](CO)C(=O)N[C@@H](CCCNC(=N)N)C(=O)N[C@@H](CC(C)C)C(=O)N[C@@H](CCC(=O)O)C(=O)N[C@H]1CC(=O)NCCCC[C@@H](C(=O)N[C@@H](CCCNC(=N)N)C(=O)N[C@@H](CC(C)C)C(=O)N[C@H](C(=O)N[C@@H](CCC(=O)O)C(N)=O)[C@@H](C)O)NC(=O)[C@H](CCCNC(=N)N)NC(=O)[C@H](CC(C)C)NC(=O)[C@H](CCC(=O)O)NC1=O [SD15196] (Ac-SRLEDELRKRLTE-NH2; lactam 5-9) turned out to be 71.5

The value of remaining at 6 h, 10 µM measured for the compound CC(=O)N1CCC[C@H]1C(=O)N[C@@H](CO)C(=O)N[C@@H](CCCNC(=N)N)C(=O)N[C@@H](CC(C)C)C(=O)N[C@H]1CCC(=O)NCCCC[C@@H](C(=O)N[C@@H](CCCNC(=N)N)C(=O)N[C@@H](CCCNC(=N)N)C(=O)N[C@@H](CC(C)C)C(=O)N[C@H](C(=O)N[C@@H](CCC(=O)O)C(N)=O)[C@@H](C)O)NC(=O)[C@H](CC(C)C)NC(=O)[C@H](CCC(=O)O)NC(=O)[C@H](CCC(=O)O)NC1=O [SD15806] (Ac-PSRLEEELKRRLTE-NH2; lactam 5-9) turned out to be 81.4

----------
System: NbALFA
Experiment: SPR measurements of NbALFA binding (Biacore T200, multi cycle kinetics, 1:1 binding model)
Conditions: 25° C., HBS-EP+ buffer, biotinylated NbALFA captured
Bridge positions count the residues as written; N and C are the ends. Square brackets hold non-standard residues; d marks the D form. Peptide text beside a SMILES is read from it.
// values below are reported ka
Quick note: give the figure in M⁻¹ s⁻¹, leave out the unit.

Field: example entries. Status: answers known.
COMPOUND	ka, M⁻¹ s⁻¹
CC(=O)N1CCC[C@H]1C(=O)N[C@@H](CO)C(=O)N[C@@H](CCCNC(=N)N)C(=O)N[C@@H](CC(C)C)C(=O)N[C@@H](CCC(=O)O)C(=O)N[C@H]1CCC(=O)NCCCC[C@@H](C(=O)N[C@@H](CCCNC(=N)N)C(=O)N[C@@H](CC(C)C)C(=O)N[C@H](C(=O)N[C@@H](CCC(=O)O)C(N)=O)[C@@H](C)O)NC(=O)[C@H](CCCNC(=N)N)NC(=O)[C@H](CC(C)C)NC(=O)[C@H](CCC(=O)O)NC1=O [SD15341] (Ac-PSRLEEELRKRLTE-NH2; lactam 6-10)	1.86e+07
CC(=O)N1CCC[C@H]1C(=O)N[C@@H](CO)C(=O)N[C@@H](CCCNC(=N)N)C(=O)N[C@@H](CC(C)C)C(=O)N[C@@H](CCC(=O)O)C(=O)N[C@H]1CCCCNC(=O)CC[C@@H](C(=O)N[C@@H](CCCNC(=N)N)C(=O)N[C@@H](CC(C)C)C(=O)N[C@H](C(=O)N[C@@H](CCC(=O)O)C(N)=O)[C@@H](C)O)NC(=O)[C@H](CCCNC(=N)N)NC(=O)[C@H](CC(C)C)NC(=O)[C@H](CCC(=O)O)NC1=O [SD15805] (Ac-PSRLEKELRERLTE-NH2; lactam 6-10)	9.33e+06

// switching to the query compound
CC(=O)N1CCC[C@H]1C(=O)N[C@@H](CO)C(=O)N[C@@H](CCCNC(=N)N)C(=O)N[C@@H](CC(C)C)C(=O)N[C@@H](CCC(=O)O)C(=O)N[C@H]1CCC(=O)NCCCC[C@H](C(=O)N[C@@H](CCCNC(=N)N)C(=O)N[C@@H](CC(C)C)C(=O)N[C@H](C(=O)N[C@@H](CCC(=O)O)C(N)=O)[C@@H](C)O)NC(=O)[C@H](CCCNC(=N)N)NC(=O)[C@H](CC(C)C)NC(=O)[C@H](CCC(=O)O)NC1=O [SD15808] (Ac-PSRLEEELR[dK]RLTE-NH2; lactam 6-10) tested on NbALFA gave ka: 1.35e+07
